assay: in vitro; conditions: rabbit
Description: Corneal permeability in rabbit corneal tissues mounted on vertical Using chambers
Quick reference for Papp among some molecules
Expressed in ×10⁻⁶ cm/s, but write only the number.

Answered examples (3):
chem.smiles	units	Papp
NS(=O)(=O)c1nnc(NC(=O)CNC[C@@H]2[C@@H](C/C=C\CCCC(=O)O)[C@@H](O)C[C@H]2O)s1	×10⁻⁶ cm/s	0.94
COC(=O)CCC/C=C\C[C@@H]1[C@@H](c2cn(-c3ccc(S(N)(=O)=O)cc3)nn2)[C@H](O)C[C@@H]1O	×10⁻⁶ cm/s	2.1
CCCCC[C@H](O)/C=C/[C@@H]1[C@@H](C/C=C\CCCC(=O)O)[C@@H](O)C[C@H]1O	×10⁻⁶ cm/s	9.7

Briefly, Papp measured for NS(=O)(=O)c1ccc(-n2cc([C@@H]3[C@@H](C/C=C\CCCC(=O)O)[C@@H](O)C[C@H]3O)nn2)cc1 : 1.7

Documented Papp of CC(C)OC(=O)CCC/C=C\C[C@@H]1[C@@H](CNCC(=O)Nc2nnc(S(N)(=O)=O)s2)[C@H](O)C[C@@H]1O : 3.1

Papp measured on CCCCC[C@H](O)/C=C/[C@@H]1[C@@H](C/C=C\CCCC(=O)Nc2nnc(S(N)(=O)=O)s2)[C@@H](O)C[C@H]1O = 6.4

Input O=C(O)CCC/C=C\C[C@@H]1[C@@H](CC[C@@H](O)CCc2ccccc2)[C@H](O)C[C@@H]1O . Output Papp: 1.2

----------
test: in vitro; settings: human, Caco-2
Description: Permeability across human Caco2 cells
readout.label: Papp (×10⁻⁶ cm/s)
Field format: number, assumed ×10⁻⁶ cm/s, no unit text.

chem.smiles	Papp / ×10⁻⁶ cm/s
CCCCC[C@H](O)/C=C/[C@@H]1[C@@H](C/C=C\CCCC(=O)Nc2nnc(S(N)(=O)=O)s2)[C@@H](O)C[C@H]1O	1.6
CC(C)OC(=O)CCC/C=C\C[C@@H]1[C@@H](CNCC(=O)Nc2nnc(S(N)(=O)=O)s2)[C@H](O)C[C@@H]1O	2.1
O=C(O)CCC/C=C\C[C@@H]1[C@@H](CC[C@@H](O)CCc2ccccc2)[C@H](O)C[C@@H]1O	3.5
COC(=O)CCC/C=C\C[C@@H]1[C@@H](c2cn(-c3ccc(S(N)(=O)=O)cc3)nn2)[C@H](O)C[C@@H]1O	3.2
CCCCC[C@H](O)/C=C/[C@@H]1[C@@H](C/C=C\CCCC(=O)O)[C@@H](O)C[C@H]1O	3.3

For this compound ( NS(=O)(=O)c1nnc(NC(=O)CNC[C@@H]2[C@@H](C/C=C\CCCC(=O)O)[C@@H](O)C[C@H]2O)s1 ), measured Papp is 3

The measured Papp associated with NS(=O)(=O)c1ccc(-n2cc([C@@H]3[C@@H](C/C=C\CCCC(=O)O)[C@@H](O)C[C@H]3O)nn2)cc1 reads 3.3

----------
biological target: Prostaglandin F2-alpha receptor (Mus musculus) (UniProt P43117); experiment: Intrinsic activity at FP receptor in mouse 3T3 fibroblast cells assessed as maximum compound-evoked response; type: cell-based
readout.label: Intrinsic activity
Number only, no unit.

Check out these entries, answers already filled in.
compound	target.system	Intrinsic activity
O=C(O)CCC/C=C\C[C@@H]1[C@@H](CC[C@@H](O)CCc2ccccc2)[C@H](O)C[C@@H]1O [LATANOPROST ACID]	Prostaglandin F2-alpha receptor (Mus musculus) (UniProt P43117)	1
CCCCC[C@H](O)/C=C/[C@@H]1[C@@H](C/C=C\CCCC(=O)O)[C@@H](O)C[C@H]1O [DINOPROST]	Prostaglandin F2-alpha receptor (Mus musculus) (UniProt P43117)	1

// next item, Intrinsic activity requested
The reported value for CCCCC[C@H](O)/C=C/[C@@H]1[C@@H](C/C=C\CCCC(=O)Nc2nnc(S(N)(=O)=O)s2)[C@@H](O)C[C@H]1O in terms of Intrinsic activity is 0.9

----------
Below are EC50 values measured for Prostaglandin F2-alpha receptor (Mus musculus).

As a guide, the following entries are already answered.
compound	EC50
CC(C)OC(=O)CCC/C=C\C[C@@H]1[C@@H](CNCC(=O)Nc2nnc(S(N)(=O)=O)s2)[C@H](O)C[C@@H]1O	> 5.01 µM
CCCCC[C@H](O)/C=C/[C@@H]1[C@@H](C/C=C\CCCC(=O)Nc2nnc(S(N)(=O)=O)s2)[C@@H](O)C[C@H]1O	3.98 µM
NS(=O)(=O)c1ccc(-n2cc([C@@H]3[C@@H](C/C=C\CCCC(=O)O)[C@@H](O)C[C@H]3O)nn2)cc1	2 µM
CC(C)OC(=O)CCC/C=C\C[C@@H]1[C@@H](/C=C/C(=O)Nc2nnc(S(N)(=O)=O)s2)[C@H](O)C[C@@H]1O	> 5.01 µM
CCN(C(=O)/C=C/[C@@H]1[C@@H](C/C=C\CCCC(=O)OC(C)C)[C@@H](O)C[C@H]1O)[C@H]1C[C@H](C)S(=O)(=O)C2SC(S(N)(=O)=O)=CC21 (some centres not stated)	> 5.01 µM

Form field EC50, entry CCCCC[C@H](O)/C=C/[C@@H]1[C@@H](C/C=C\CCCC(=O)N(CC)[C@H]2CN(CCCOC)S(=O)(=O)C3SC(S(N)(=O)=O)=CC32)[C@@H](O)C[C@H]1O (some centres not stated) : > 5.01 µM

For this compound ( COC(=O)CCC/C=C\C[C@@H]1[C@@H](c2cn(-c3ccc(S(N)(=O)=O)cc3)nn2)[C@H](O)C[C@@H]1O ), measured EC50 is > 5.01 µM

----------
# reported EC50; entries follow
target: Prostaglandin F2-alpha receptor (Mus musculus, UniProt P43117)
Sequence (P43117 whole entry): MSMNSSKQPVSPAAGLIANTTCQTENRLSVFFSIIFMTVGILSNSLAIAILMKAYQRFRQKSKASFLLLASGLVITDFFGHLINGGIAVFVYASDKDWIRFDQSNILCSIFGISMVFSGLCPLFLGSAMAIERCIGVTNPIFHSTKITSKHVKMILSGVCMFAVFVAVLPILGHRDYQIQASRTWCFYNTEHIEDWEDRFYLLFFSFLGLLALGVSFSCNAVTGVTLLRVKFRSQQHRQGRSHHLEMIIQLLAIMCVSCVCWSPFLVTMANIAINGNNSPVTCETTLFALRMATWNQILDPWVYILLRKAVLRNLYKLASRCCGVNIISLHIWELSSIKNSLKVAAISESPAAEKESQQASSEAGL

compound	result
NS(=O)(=O)c1nnc(NC(=O)CNC[C@@H]2[C@@H](C/C=C\CCCC(=O)O)[C@@H](O)C[C@H]2O)s1	> 5.01 µM
CCCCC[C@H](O)/C=C/[C@@H]1[C@@H](C/C=C\CCCC(=O)NCCc2ccc(S(N)(=O)=O)cc2)[C@@H](O)C[C@H]1O	> 5.01 µM
O=C(O)CCC/C=C\C[C@@H]1[C@@H](CC[C@@H](O)CCc2ccccc2)[C@H](O)C[C@@H]1O	0.00631 µM

Value sought: EC50, system Prostaglandin F2-alpha receptor (Mus musculus, UniProt P43117), item CCN(C(=O)/C=C/[C@@H]1[C@@H](C/C=C\CCCC(=O)O)[C@@H](O)C[C@H]1O)[C@H]1C[C@H](C)S(=O)(=O)C2SC(S(N)(=O)=O)=CC21 (some centres undefined) . Result: > 5.01 µM
